Just for reference, the supplement of paper PMC11451515 is where these values come from.

System: P12-Ichikawa
runDescription: cell viability relative to DMSO control; higher = less cytotoxic
condition: HPLM + 10% dialyzed FBS; 48 h; 0.00702 µM
Below is a list of entries, each paired with its recorded cell viability value.
Lab book: enter the figure in %, no units written.

Example compounds with recorded cell viability:
compound	cell viability (%)
CCOC(=O)c1cncn1[C@H](C)c1ccccc1	115
Nc1nc(N)c2nc(-c3cccc(O)c3)c(-c3cccc(O)c3)nc2n1	113
CC(C)C[C@H](NC(=O)CNC(=O)c1cc(Cl)ccc1Cl)B(O)O	99.7

Shifting focus to the compound that follows.
For P12-Ichikawa, give the measured cell viability of the entry CN1CCCC(CC1)N2\N=C(CC3=CC=C(Cl)C=C3)/C4=C(C=CC=C4)C2=O (centres undefined)
116

* * *

Test system: P12-Ichikawa
runDescription: cell viability relative to DMSO control; higher = less cytotoxic
condition: HPLM + 10% dialyzed FBS; 48 h; 1.71 µM
endpointLabel: cell viability (%)
Lab book: enter the figure in %, no units written.

molecule	endpointUnit	cell viability
Cc1cc(C(=O)N2CCN(c3cccc(Cl)c3)CC2)n(-c2ccccc2)n1	%	50.2

For P12-Ichikawa, give the measured cell viability of the entry CN1CCCC(CC1)N2\N=C(CC3=CC=C(Cl)C=C3)/C4=C(C=CC=C4)C2=O (configuration not stated)
112

For P12-Ichikawa, give the measured cell viability of the entry CN1\C(=C(\O)C2=C(C=CC=C2)[S+]1([O-])=O)C(=O)NC3=CC=CC=N3
101

For P12-Ichikawa, give the measured cell viability of the entry COC[C@H](c1ccc(C(F)(F)F)cc1)N1CCN(C2(C)CCN(C(=O)c3c(C)ncnc3C)CC2)C[C@H]1C.O=C(O)/C=C\C(=O)O
117

For P12-Ichikawa, give the measured cell viability of the entry COC1=CC=C(C=C1O)C/2=C/C(=O)C3=C(O2)C=C(O)C=C3O
90.8

For P12-Ichikawa, give the measured cell viability of the entry Cc1csc(NC(=O)c2sc3nc4c(c(C(F)(F)F)c3c2N)CCC4)n1
91.3

For P12-Ichikawa, give the measured cell viability of the entry CC(C)C[C@H](NC(=O)CNC(=O)c1cc(Cl)ccc1Cl)B(O)O
5.51

For P12-Ichikawa, give the measured cell viability of the entry C/C(O)=C(\C#N)C(=O)Nc1cc(Br)ccc1Br
105

For P12-Ichikawa, give the measured cell viability of the entry C[S+](=O)([O-])c1ccc(-c2cnc(N)c(C(=O)Nc3ccccc3)n2)cc1
118

* * *

Test system: P12-Ichikawa
runDescription: cell viability relative to DMSO control; higher = less cytotoxic
condition: RPMI 5 mM glucose + 10% FBS; 48 h; 0.0211 µM
endpointLabel: cell viability (%)
Lab book: enter the figure in %, no units written.

Example molecules with recorded cell viability:
molecule	cell viability / %
Cc1cc(Nc2cc(CN3CCOCC3)c3nc(C)c(Cc4ccc(Cl)cc4F)n3n2)[nH]n1	117
ClC1=CC\2=C(OC3=C(C=CC=C3)\N=C2N4CCNCC4)C=C1	105
COc1cc2c(Nc3ccc(Br)cc3F)ncnc2cc1OCC1CCN(C)CC1	87.7
OC(=O)C(CC/1=C/C(=O)NC2=CC=CC=C12)NC(=O)C3=CC=C(Cl)C=C3 (stereo unspecified)	117
C[C@]12CC[C@@H]3c4ccc(O)cc4CC[C@H]3[C@@H]1C[C@@H](O)[C@@H]2O	114

State its cell viability for this molecule: O=C1Nc2ccc(I)cc2/C1=C/c1cc(Br)c(O)c(Br)c1
103
